So I've got a bunch of variants here, and I need their protein stability index values.
B1: KCNG1 (parent)
chain: LFVTVTAVNLSVSTLPSLREEEEQ

# Variants of: B1
# measurement description: protein stability index of a GFP-peptide fusion (GPS, HEK-293T) (PSI 1-6); higher = more stable;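 also: lentivirally expressed fusions sorted by FACS into six bins by GFP to DsRed ratio, PSI derived from sequencing read proportions per bin multiplied by bin number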
# conditions: c terminus: a fixed tail appended

Per the records, this variant ( `S11P` ) has protein stability index equal to 2.02

Per the records, this variant ( `P16D` ) has protein stability index equal to 1.19

Per the records, this variant ( `Q24Y` ) has protein stability index equal to 2.27

Per the records, this variant ( `V5R` ) has protein stability index equal to 3.2

Per the records, this variant ( `V8M` ) has protein stability index equal to 1.23

Per the records, this variant ( `L18S` ) has protein stability index equal to 3.17

Per the records, this variant ( `T14E` ) has protein stability index equal to 1.99

Per the records, this variant ( `R19D` ) has protein stability index equal to 2.32

Per the records, this variant ( `S17K` ) has protein stability index equal to 4.4

Per the records, this variant ( `S13D` ) has protein stability index equal to 1.55

Per the records, this variant ( `S17E` ) has protein stability index equal to 3.27

Per the records, this variant ( `L15C` ) has protein stability index equal to 2.81

Per the records, this variant ( `L18A` ) has protein stability index equal to 3.29

Per the records, this variant ( `T4K` ) has protein stability index equal to 1.64

Per the records, this variant ( `Q24E` ) has protein stability index equal to 1.37

Per the records, this variant ( `V8R` ) has protein stability index equal to 2.51

Per the records, this variant ( `T14P` ) has protein stability index equal to 2.61

Per the records, this variant ( `T4P` ) has protein stability index equal to 3.13

Per the records, this variant ( `V8S` ) has protein stability index equal to 2.77

Per the records, this variant ( `R19Q` ) has protein stability index equal to 1.2

Per the records, this variant ( `S17H` ) has protein stability index equal to 1.26

Per the records, this variant ( `L15K` ) has protein stability index equal to 1.62

Per the records, this variant ( `A7T` ) has protein stability index equal to 1.34

Per the records, this variant ( `F2G` ) has protein stability index equal to 2.41

Per the records, this variant ( `R19S` ) has protein stability index equal to 2.41

Per the records, this variant ( `T6G` ) has protein stability index equal to 1.3

Per the records, this variant ( `T4M` ) has protein stability index equal to 3.06

Per the records, this variant ( `T14M` ) has protein stability index equal to 2.01

Per the records, this variant ( `E22P` ) has protein stability index equal to 2.31

Per the records, this variant ( `V8K` ) has protein stability index equal to 2.15

Per the records, this variant ( `T6P` ) has protein stability index equal to 3.96

Per the records, this variant ( `R19E` ) has protein stability index equal to 1.43

Per the records, this variant ( `L15M` ) has protein stability index equal to 2.51

Per the records, this variant ( `E21P` ) has protein stability index equal to 2.06

Per the records, this variant ( `F2Q` ) has protein stability index equal to 2.09

Per the records, this variant ( `T14R` ) has protein stability index equal to 4.33

Per the records, this variant ( `V3L` ) has protein stability index equal to 1.53

Per the records, this variant ( `S17F` ) has protein stability index equal to 1.79

Reference source for all entries: the supplement of paper PMC10567573
